Just for reference, PubChem BioAssay (Tox21) is where these values come from.

- experiment-description: qHTS RealTime-Glo MT Cell Viability Assay in HEK293 cells - 16 hour (AID 1224872); further: top concentration of the series differs between compounds; nearly all actives have a fitted effect of over 50% in size
- experimental-context: RealTime-Glo luminescence; series mostly up to 76.8 µM
Inconclusive results are not listed. Calls of active or inactive are those of the source. The call rests on the fitted dose curve; in most records, active means well fitted cell-killing curve with a large enough effect in the repeat runs; inconclusive means weak or mixed curves, or effect the other way; inactive means flat fitted curve, though single readings scatter.
Write down the outcome that applies. Available outcomes: True (active), False (inactive)

Some entries whose results are on file:
CCCCN(CCCC)CCCOC(=O)c1ccc(N)cc1    False
c1cc[c]([Bi]([c]2ccccc2)[c]2ccccc2)cc1    False
O=C(CCCCCCCCC#CI)Oc1ccccc1    False

Lookup: Dear all, I need the recorded test outcome for CCCCC(=O)O[C@]1(C(=O)CO)CC[C@H]2[C@@H]3CCC4=CC(=O)CC[C@]4(C)[C@H]3[C@@H](O)C[C@@]21C , thank you.
Found: False

Lookup: What about this compound? N#C/C(=C1/SC[C@@H](c2ccc(Cl)cc2Cl)S1)n1ccnc1
Found: False

Lookup: What about this compound? CC1(C)C2=CCCC(C)(C)[C@]23CC[C@H]1C3
Found: False

###

- experiment-description: qHTS assay to identify small molecule antagonists of the estrogen receptor beta (ER-beta) signaling pathway - cell viability counter screen (AID 1259382); further: nearly all actives have a fitted effect of over 55% in size
- experimental-context: ER-beta-UAS-bla HEK293T viability, CellTiter-Glo luminescence, 16 h; series mostly up to 92.4 µM
Inconclusive results are not listed. Active and inactive are the calls of the source. The call rests on the fitted dose curve; in most records, active means well fitted cell-killing curve with a large enough effect in the repeat runs; inconclusive means weak or mixed curves; inactive means flat fitted curve, though single readings scatter.
Write down the outcome that applies. Available outcomes: True (active), False (inactive)

Some entries whose results are on file:
CC(=O)OCC(=O)[C@H]1CC[C@H]2[C@@H]3CCC4=CC(=O)CC[C@]4(C)[C@H]3CC[C@]12C    False
O=C(NCCCN1CCOCC1)c1ccc(Cl)cc1    False
N#C/C(=C1\SCC(c2ccccc2Cl)S1)n1ccnc1 (stereo unspecified)    False
CCc1c2c(nc3ccc(OC(=O)N4CCC(N5CCCCC5)CC4)cc13)-c1cc3c(c(=O)n1C2)COC(=O)[C@]3(O)CC    False
CN1CCN(CCCN2c3ccccc3Sc3ccc(S(=O)(=O)N(C)C)cc32)CC1    True

Could you now consider this next compound?
Lookup: Dear all, I need the recorded test outcome for O=C(O)c1snc(Cl)c1Cl , thank you.
Found: False

###

- experiment-description: qHTS assay to identify small molecule agonists of the estrogen receptor beta (ER-beta) signaling pathway - cell viability counter screen (AID 1259380); further: nearly all actives have a fitted effect of over 30% in size; further: potency means the concentration at half of the fitted maximal effect
- experimental-context: ER-beta-bla HEK293T viability, CellTiter-Glo luminescence, 16 h; series mostly up to 92.4 µM
Records with an inconclusive call do not appear. Activity calls are given as the source filed them. The call rests on the fitted dose curve; in most records, active means well fitted cell-killing curve with a large enough effect in the repeat runs; inconclusive means weak or mixed curves, or effect the other way; inactive means flat fitted curve, though single readings scatter.
readout-label: Potency

Take a look at these entries with their results.
CC(CCO)CCc1ccccc1 (stereo not given)    inactive
Nc1c(I)cc(I)c(C(=O)N(CCC(=O)O)c2ccccc2)c1I    inactive
Oc1cc(O)c(Cl)cc1Cl    inactive
O=S1OCCO1    inactive

Lookup: Fill in the blank: the reported Potency of Fc1c(F)c(F)c(Br)c(F)c1F is ____.
Found: inactive

Lookup: What about this compound? C/C(=N/NC(=O)c1ccncc1)C(=O)O
Found: inactive

Lookup: What about this compound? O=C(CS)OCCOC(=O)CS
Found: 30.6 µM (active)

Lookup: What about this compound? CCOC(=O)[C@@H](C)Oc1ccc(Oc2nc3ccc(Cl)cc3o2)cc1
Found: inactive

Lookup: What about this compound? COc1cc2c(N3CCN(C(=O)Nc4ccc(OC(C)C)cc4)CC3)ncnc2cc1OCCCN1CCCCC1
Found: 18.8 µM (active)

Lookup: What about this compound? Cc1nc2ccccc2s1
Found: inactive

Lookup: What about this compound? COc1ccc([C@@H]2Sc3ccccc3NC(=O)[C@@H]2O)cc1
Found: inactive

Lookup: What about this compound? Nc1ccc(S(=O)(=O)O)c(N)c1
Found: inactive

###

- experiment-description: qHTS assay to identify small molecule antagonists of the sonic hedgehog signaling (Shh) pathway (AID 1259369); further: nearly all actives have a fitted effect of over 45% in size
- experimental-context: NIH/3T3 Gli1-Luc reporter, Shh antagonist, luminescence 24 h; series mostly up to 92.4 µM
Results filed as inconclusive are left out. The source made the active and inactive calls. The call rests on the fitted dose curve.
Write down the outcome that applies. Available outcomes: yes (active), no (inactive)

CCCCCCCCCCCC(=O)[O][Sn]([CH2]CCC)([CH2]CCC)[O]C(=O)CCCCCCCCCCC    no

Lookup: Dear all, I need the recorded test outcome for Cc1cc(S(=O)(=O)O)ccc1N=Nc1c(O)ccc2ccccc12 , thank you.
Found: no

Lookup: What about this compound? CCOC(=O)/C=C/C(=O)O
Found: no

Lookup: What about this compound? CCCCC(CC)COC(=O)COc1ccc(Cl)cc1C (stereo not given)
Found: no

Lookup: What about this compound? CC(C)C(=O)O
Found: no

Lookup: What about this compound? O=C(O)c1cccc(O)c1
Found: no

Lookup: What about this compound? CC1C2CC(CC2C2CCCC(O)C2)C1(C)C (stereo not given)
Found: no

Lookup: What about this compound? O=C(O)C(Cc1cc(I)c(O)c(I)c1)c1ccccc1 (stereo not given)
Found: no

Lookup: What about this compound? CNCCCC1c2ccccc2C=Cc2ccccc21
Found: yes

Lookup: What about this compound? CCCCCCOC(=O)C(C)C
Found: no

Lookup: What about this compound? CCNC(=O)N1CCN(CCCC(c2ccc(F)cc2)c2ccc(F)cc2)CC1
Found: yes

Lookup: What about this compound? CCCCC(CC)C(=O)OCCOCCOCCOCCOC(=O)C(CC)CCCC (stereo not given)
Found: no

Lookup: What about this compound? CCOC(=O)c1ccccc1C
Found: no

Lookup: What about this compound? CC(=O)OCC(=O)[C@@]12OC(C)(C)O[C@@H]1C[C@H]1[C@@H]3C[C@H](F)C4=CC(=O)C=C[C@]4(C)[C@@]3(F)[C@@H](O)C[C@@]12C
Found: no

Lookup: What about this compound? O=C1NCCN1
Found: no

###

- experiment-description: qHTS assay to identify small molecule antagonists of the estrogen receptor beta (ER-beta) signaling pathway - cell viability counter screen (AID 1259382); further: nearly all actives have a fitted effect of over 55% in size
- experimental-context: ER-beta-UAS-bla HEK293T viability, CellTiter-Glo luminescence, 16 h; series mostly up to 92.4 µM
Records with an inconclusive call do not appear. The source made the active and inactive calls. The call rests on the fitted dose curve; in most records, active means well fitted cell-killing curve with a large enough effect in the repeat runs; inconclusive means weak or mixed curves; inactive means flat fitted curve, though single readings scatter.
Write down the outcome that applies. Available outcomes: active, inactive

Cc1nc2ccccn2c(=O)c1CCN1CCC(C(=O)c2ccc(F)cc2)CC1    inactive
CC(=O)[C@H]1CC[C@H]2[C@@H]3C=CC4=CC(=O)CC[C@@]4(C)[C@@H]3CC[C@]12C    inactive
CN(C)C(=O)Nc1ccc(Oc2ccc(Cl)cc2)cc1    inactive
NC(=O)N(O)[C@@H]1C=C[C@H](Oc2cccc(Oc3ccc(F)cc3)c2)C1    inactive
CCC(=O)OC/C=C/c1ccccc1    inactive
Cc1ccc(S)cc1    inactive
CCCCOC(=O)CCS    inactive
CCNC(=O)N1CCN(CCCC(c2ccc(F)cc2)c2ccc(F)cc2)CC1    inactive

Lookup: Dear all, I need the recorded test outcome for C=CCNc1nc(NCC=C)nc(N2CCN(C(c3ccc(F)cc3)c3ccc(F)cc3)CC2)n1 , thank you.
Found: inactive

Lookup: What about this compound? COc1cc2c(cc1OC)-c1cc(=Nc3c(C)cc(C)cc3C)n(C)c(=O)n1CC2
Found: inactive

Lookup: What about this compound? C=C(C)C(=O)OCCOC(=O)CC(C)=O
Found: inactive

###

- measured-target: Nuclear receptor subfamily 1 group I member 2 (Homo sapiens) (UniProt O75469)
- Sequence (O75469 whole entry, looked up): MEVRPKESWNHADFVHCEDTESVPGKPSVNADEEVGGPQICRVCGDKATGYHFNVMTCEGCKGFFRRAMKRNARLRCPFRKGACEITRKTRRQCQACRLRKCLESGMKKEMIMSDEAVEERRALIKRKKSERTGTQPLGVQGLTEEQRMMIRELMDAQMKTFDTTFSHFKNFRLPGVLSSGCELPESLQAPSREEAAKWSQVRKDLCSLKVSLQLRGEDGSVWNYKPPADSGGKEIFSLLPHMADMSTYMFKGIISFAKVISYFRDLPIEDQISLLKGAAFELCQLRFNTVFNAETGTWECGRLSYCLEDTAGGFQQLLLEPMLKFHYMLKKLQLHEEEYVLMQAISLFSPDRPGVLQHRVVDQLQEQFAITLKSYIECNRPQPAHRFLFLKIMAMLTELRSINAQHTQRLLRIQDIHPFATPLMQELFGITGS
- experiment-description: Human pregnane X receptor (PXR) small molecule agonists, qHTS assay (AID 1346982); further: nearly all actives have a fitted effect of over 35% in size
- experimental-context: PXR-Luc HepG2, CYP3A4 luciferase reporter, 24 h; series mostly up to 92.4 µM
- Text: National Center for Advancing Translational Sciences [NCATS] NIH Chemical Genomics Center [NCGC] U.S. Environmental Protection Agency [EPA] National Institutes of Environmental Health Sciences [NIEHS] National Toxicology Program [NTP] The human pregnane X receptor (hPXR) regulates the expression of several drug metabolizing enzymes and induction of these proteins is a major mechanism for developing drug resistance in cancer. […]
Inconclusive results are not listed. The source made the active and inactive calls. Calls come from the whole dose curve; as a rule, active = well fitted activation curve with a large enough effect in the repeat runs; inconclusive = weak or mixed curves; inactive = no such curve, though single readings can be large or run the other way.
Write down the outcome that applies. Available outcomes: active, inactive

Some entries whose results are on file:
Cc1occc1C(=O)Nc1ccc(C(=O)N2CCC(F)(F)/C(=C\C(=O)N3CCC(N4CCCCC4)CC3)c3ccccc32)cc1    active
NC(=O)N(O)[C@@H]1COc2cc(OCc3ccccc3)ccc21    active
CCCCCCOC(=O)CCCCCCCC(=O)OCCCCCC    inactive
CCNC(=O)N1CCN(CCCC(c2ccc(F)cc2)c2ccc(F)cc2)CC1    active
Nc1ccc(Cl)cc1[N+](=O)[O-]    active

Lookup: Dear all, I need the recorded test outcome for Cc1ccc(Nc2nccc(N(C)c3ccc4c(C)n(C)nc4c3)n2)cc1S(N)(=O)=O , thank you.
Found: active

Lookup: What about this compound? C/C=C(\C)C(=O)OCCC(C)CCC=C(C)C (stereo not given)
Found: inactive

Lookup: What about this compound? CCCCCCCC/C=C\CCCCCCCC(=O)OC(CO)CO
Found: inactive

Lookup: What about this compound? O=c1[nH]c2ccc(S(=O)CCN3CCC(Cc4ccc(F)cc4)CC3)cc2o1 (stereo not given)
Found: inactive

Lookup: What about this compound? C=CCNc1nc(NCC=C)nc(N2CCN(C(c3ccc(F)cc3)c3ccc(F)cc3)CC2)n1
Found: active
